B1: Connector enhancer of kinase suppressor of ras 2, residues 9 to 71; numbered along this chain, Q8WXI2 (parent)
chain: SKWSPSQVVDWMKGLDDCLQQYIKNFEREKISGDQLLRITHQELEDLGVSRIGHQELILEAVD

Variants of: B1
ASSAY: abundance fitness (aPCA) (normalised: wild type 0, dead -1); higher = more abundant; growth selection in yeast, the domain comes from the species named
MEASUREMENT PARAMETERS: Homo sapiens
Tag: criterion met if measured abundance fitness is not below -0.1, criterion not met if it is.

# example entries with known answers
   mutant_id                cat
0       G33Y  criterion not met
1       D46Q      criterion met
2       Q42T  criterion not met
3       G33E  criterion not met

Threshold query (abundance fitness >= -0.1) on R28A
criterion met

Reported abundance fitness at or above -0.1? R51Q
criterion met
